The values you see were collected from patent US20210115124A1.

Please go through the items and note down their koff.
TARGET_UNDER_TEST: T1, human VEGF (hVEGF) (human, UniProt P15692 181-395)
T1 construct: also called VEGF-A
T1 sequence: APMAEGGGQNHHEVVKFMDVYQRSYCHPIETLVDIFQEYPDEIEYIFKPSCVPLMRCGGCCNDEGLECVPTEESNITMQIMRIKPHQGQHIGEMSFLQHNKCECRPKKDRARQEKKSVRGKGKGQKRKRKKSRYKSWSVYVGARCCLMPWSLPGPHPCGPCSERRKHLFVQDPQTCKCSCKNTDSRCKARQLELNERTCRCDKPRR
METHOD_NOTES: SPR single-cycle;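 note: fab variants injected over hVEGF immobilized on a CM5 chip (Biacore T200), threefold dilution series from 0.02 to 50 nM, kinetics fitted with a 1:1 Langmuir model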
Give bare numbers, in s⁻¹.

G6.31 HC-S74E (Fab, name in Kabat numbering, V domains shown, Fab) VH: EVQLVESGGGLVQPGGSLRLSCAASGFTISDYWIHWVRQAPGKGLEWVAGITPAGGYTYYADSVKGRFTISADTEKNTAYLQMNSLRAEDTAVYYCARFVFFLPYAMDYWGQGTLVTVSS VL: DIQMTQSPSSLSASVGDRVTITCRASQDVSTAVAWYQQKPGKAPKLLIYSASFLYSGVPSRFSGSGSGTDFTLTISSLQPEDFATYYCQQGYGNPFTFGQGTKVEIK: 0.000499
G6.31 LC-Q27E (Fab, V domains shown, Fab) VH: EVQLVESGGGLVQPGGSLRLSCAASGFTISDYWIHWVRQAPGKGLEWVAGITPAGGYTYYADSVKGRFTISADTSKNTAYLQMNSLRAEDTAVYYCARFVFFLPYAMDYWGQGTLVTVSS VL: DIQMTQSPSSLSASVGDRVTITCRASEDVSTAVAWYQQKPGKAPKLLIYSASFLYSGVPSRFSGSGSGTDFTLTISSLQPEDFATYYCQQGYGNPFTFGQGTKVEIK: 0.00045
G6.31 LC-P59E (Fab, V domains shown, Fab) VH: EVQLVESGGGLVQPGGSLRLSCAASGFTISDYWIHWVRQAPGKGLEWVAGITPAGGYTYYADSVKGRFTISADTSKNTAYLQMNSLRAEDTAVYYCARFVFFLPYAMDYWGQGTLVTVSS VL: DIQMTQSPSSLSASVGDRVTITCRASQDVSTAVAWYQQKPGKAPKLLIYSASFLYSGVESRFSGSGSGTDFTLTISSLQPEDFATYYCQQGYGNPFTFGQGTKVEIK: 0.000444
G6.31 HC-Q81E (Fab, name in Kabat numbering, V domains shown, Fab) VH: EVQLVESGGGLVQPGGSLRLSCAASGFTISDYWIHWVRQAPGKGLEWVAGITPAGGYTYYADSVKGRFTISADTSKNTAYLEMNSLRAEDTAVYYCARFVFFLPYAMDYWGQGTLVTVSS VL: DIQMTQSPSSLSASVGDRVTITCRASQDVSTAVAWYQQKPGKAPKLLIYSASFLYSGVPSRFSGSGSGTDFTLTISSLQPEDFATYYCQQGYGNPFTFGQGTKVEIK: 0.000495

Kindly consider the entry below.
Exercise: So what's the measured koff for this one? G6.31 HC-K75E (Fab, name in Kabat numbering, V domains shown, Fab) VH: EVQLVESGGGLVQPGGSLRLSCAASGFTISDYWIHWVRQAPGKGLEWVAGITPAGGYTYYADSVKGRFTISADTSENTAYLQMNSLRAEDTAVYYCARFVFFLPYAMDYWGQGTLVTVSS VL: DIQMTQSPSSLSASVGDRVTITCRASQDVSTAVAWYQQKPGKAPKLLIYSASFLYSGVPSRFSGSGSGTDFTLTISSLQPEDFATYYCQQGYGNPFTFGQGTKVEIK
Key: 0.000444
